experiment: Viscosity responsiveness: fluorescence emission spectra of probes in glycerol and methanol; assay type: physicochemical; details: probe 1×10^−5 M
reported-property: Fluorescence ratio in glycerol to methanol
Returns: the value as a bare number; no unit string appended.

Here is how some compounds turned out for Fluorescence ratio in glycerol to methanol.
{"input-smiles": "CN(CCOC(=O)NCc1ccc(COc2nc(N)nc3[nH]cnc23)cc1)c1ccc(C#C/C=C(\\C#N)C(=O)O)cc1", "value": 341}
{"input-smiles": "CN1C(=O)/C(=C\\c2nc3ccc(N(C)CCOC(=O)NCc4ccc(COc5nc(N)nc6[nH]cnc56)cc4)cc3o2)N=C1c1ccccc1", "value": 358}
{"input-smiles": "CN(CCOC(=O)NCc1ccc(COc2nccc(N)n2)cc1)c1cc2c(s1)-c1sc(/C=C(/C#N)c3nc4ccccc4s3)cc1C2(C)C", "value": 261}

The measured Fluorescence ratio in glycerol to methanol associated with CN(CCOC(=O)NCc1ccc(COc2nc(N)nc3[nH]cnc23)cc1)c1ccc(C#C/C=C(\C#N)C(=O)OC(C)(C)C)cc1 reads 436

Short answer for CN(CCOC(=O)NCc1ccc(COc2nccc(N)n2)cc1)c1ccc(-c2ccc(/C=C(\C#N)C(=O)OC(C)(C)C)s2)s1 : Fluorescence ratio in glycerol to methanol was 218

Sure, the documented Fluorescence ratio in glycerol to methanol for CN(CCOC(=O)NCc1ccc(COc2nc(N)nc3[nH]cnc23)cc1)c1cc2sc(/C=C(\C#N)C(=O)OC(C)(C)C)cc2s1 is 1481

----------
experiment: Viscosity responsiveness: fluorescence emission spectra of probes in glycerol and methanol; type: physicochemical; conditions: probe 1×10^−5 M
From the text: […]
Attribute: Fluorescence ratio in glycerol to methanol

Fluorescence ratio in glycerol to methanol measured on CN(CCOC(=O)NCc1ccc(COc2nccc(N)n2)cc1)c1ccc(/C=C(\C#N)C(=O)OC(C)(C)C)cc1 [probe 7] = 1455

Entry CN(CCOC(=O)NCc1ccc(COc2cc(Cl)nc(N)n2)cc1)c1cc2sc(/C=C(\C#N)c3nc4ccccc4o3)cc2s1 [probe 25] ; Fluorescence ratio in glycerol to methanol = 1621

The measured Fluorescence ratio in glycerol to methanol associated with CN(CCOC(=O)NCc1ccc(COc2nccc(N)n2)cc1)c1ccc(/C=C(\C#N)c2nc3ccccc3o2)cc1 [probe 8] reads 320

Fluorescence ratio in glycerol to methanol reported for this compound CN1C(=O)/C(=C\c2cc3ccc(N(C)CCOC(=O)NCc4ccc(COc5nc(N)nc6[nH]cnc56)cc4)cc3s2)N=C1c1ccccc1 [probe 42] : 178

----------
Examples of molecules with documented Quantum yield of probe bound to protein tag follow.
Biological target: SNAP protein tags (Homo sapiens, UniProt P16455, A127T/A154D/C150Q/C62A/E30R/G131K/G132T/G153L/K125A/K32I/L33F/M134L/N157G/Q115S/Q116H/R128A/R135S/S151G/S152D/S159E)
Sequence (P16455 1-182 with the stated changes): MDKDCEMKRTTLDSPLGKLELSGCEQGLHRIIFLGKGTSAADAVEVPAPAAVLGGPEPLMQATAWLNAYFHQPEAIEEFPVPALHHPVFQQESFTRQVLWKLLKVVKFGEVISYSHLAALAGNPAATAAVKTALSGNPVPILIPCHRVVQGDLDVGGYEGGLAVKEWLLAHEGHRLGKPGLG
Assay: Fluorescence activation of probe after incubation with corresponding protein tag (SNAP)
Assay type: biochemical
Settings: probe 5 μM, protein tag 10 μM, 37° C., 1 hr
Protocol: Probes were mixed with corresponding protein tags to obtain mixed samples, in which the final probe concentration was 5 μM, and the final protein tag concentration was 10 μM. The mixed samples were incubated 37° C. for 1 hr, fluorescence spectrophotometer was used to detect the change in fluorescence intensity, and the results are shown in Table 1. […]

Check out these entries, answers already filled in.
{"molecule": "N#C/C(=C\\c1ccc2c(c1)SCCN2CCO)C(=O)NCc1ccc(COc2nc(N)nc3[nH]cnc23)cc1 [Reference Probe 104, reference compound]", "value": 0.02}
{"molecule": "CN(CCOC(=O)NCc1ccc(COc2nc(N)nc3[nH]cnc23)cc1)c1ccc2nc(/C=C(\\C#N)C(=O)OC(C)(C)C)oc2c1", "value": 0.37}
{"molecule": "CN(CCOC(=O)NCc1ccc(COc2nc(N)nc3[nH]cnc23)cc1)c1ccc2nc(/C=C(\\C#N)c3nc4ccccc4s3)sc2c1", "value": 0.25}
{"molecule": "CN(CCOC(=O)NCc1ccc(COc2nc(N)nc3[nH]cnc23)cc1)c1ccc(C2=C(C#N)C(=C(C#N)C#N)OC2(C)C)cc1", "value": 0.45}
{"molecule": "CN(CCOC(=O)NCc1ccc(COc2nc(N)nc3[nH]cnc23)cc1)c1ccc(/C=C(\\C#N)C(=O)O)cc1", "value": 0.37}

Please examine the following record next.
Quantum yield of probe bound to protein tag in this record for CC(C)(C)OC(=O)/C(C#N)=C/c1ccc2c(c1)SCCN2CCOC(=O)NCc1ccc(COc2nc(N)nc3[nH]cnc23)cc1 : 0.18
